Source of measurements: ChEMBL document CHEMBL4483862

- Test system: Plasmodium berghei
- assay_summary: Luciferase/luciferin-expressing antifolate-resistant parasites were used to infect a culture of HepG2 cells that were pre-incubated with compounds. Infected hepatocytes emit light due to the luciferase reaction. Assay results are presented as the percent inhibition of light emission compared to control. […]
- Format: functional
- experimental_context: sporozoite, HEPG2TOX_HILL_SLOPE 4.7, HEPG2TOX_R_SQUARED 0.977, PBLUC_HILL_SLOPE 30, PBLUC_R_SQUARED 0.547, read-out: LUCIFERASE INFECTION ASSAY - IC50
measured_metric: IC50 (µM)
One number for each entry, in µM.

**Q:** Give the reported value of IC50 for this record: CC(=O)c1cccc(-c2ccc3ncc(-c4cccc(O)c4)n3n2)c1
**A:** 3.34

----------
- Tested on: Plasmodium berghei
- assay_summary: Luciferase/luciferin-expressing antifolate-resistant parasites were used to infect a culture of HepG2 cells that were pre-incubated with compounds. Infected hepatocytes emit light due to the luciferase reaction. Assay results are presented as the percent inhibition of light emission compared to control. […]
- Type: functional
- experimental_context: sporozoite, HEPG2TOX_HILL_SLOPE 4.86, HEPG2TOX_R_SQUARED 0.498, PBLUC_HILL_SLOPE 12, PBLUC_R_SQUARED 0.399, read-out: LUCIFERASE INFECTION ASSAY - IC50
measured_metric: pIC50
Numbers only, as −log10 of the molar value.

**Q:** Enter recorded pIC50 with Plasmodium berghei for Cc1ccc(C(C)NC(=O)Cc2c(C)[nH]c(-c3ccccn3)nc2=O)cc1 (stereo unspecified) here.
**A:** 5.03

----------
- Test system: Plasmodium berghei
- assay_summary: Luciferase/luciferin-expressing antifolate-resistant parasites were used to infect a culture of HepG2 cells that were pre-incubated with compounds. Infected hepatocytes emit light due to the luciferase reaction. Assay results are presented as the percent inhibition of light emission compared to control. […]
- Type: functional
- experimental_context: sporozoite, PBLUC_HILL_SLOPE 10.6, PBLUC_R_SQUARED 0.566, read-out: LUCIFERASE INFECTION ASSAY - IC50
measured_metric: pIC50
Answers are plain numbers, as −log10 of the molar value.

**Q:** Give a short answer stating reported pIC50 for COc1ccc2[nH]c(C)c(-c3csc(NC(=O)c4ccccn4)n3)c2c1 .
**A:** 5.11

----------
- System: Plasmodium berghei
- assay_summary: Luciferase/luciferin-expressing antifolate-resistant parasites were used to infect a culture of HepG2 cells that were pre-incubated with compounds. Infected hepatocytes emit light due to the luciferase reaction. Assay results are presented as the percent inhibition of light emission compared to control. […]
- Assay type: functional
- experimental_context: sporozoite, HEPG2TOX_HILL_SLOPE 1.79, HEPG2TOX_R_SQUARED 0.702, PBLUC_HILL_SLOPE 1.44, PBLUC_R_SQUARED 0.101, read-out: LUCIFERASE INFECTION ASSAY - IC50
measured_metric: pIC50
Numbers only, as −log10 of the molar value.

**Q:** State, for Plasmodium berghei, measured pIC50 of the compound listed here: NC(=O)c1c(NC(=O)N2CCC(Cc3ccccc3)CC2)sc2c1CCC2
**A:** 5.45

----------
- System: Plasmodium berghei
- assay_summary: Luciferase/luciferin-expressing antifolate-resistant parasites were used to infect a culture of HepG2 cells that were pre-incubated with compounds. Infected hepatocytes emit light due to the luciferase reaction. Assay results are presented as the percent inhibition of light emission compared to control. […]
- Type: functional
- experimental_context: sporozoite, PBLUC_HILL_SLOPE 3.81, PBLUC_R_SQUARED 0.353, read-out: LUCIFERASE INFECTION ASSAY - IC50
measured_metric: pIC50
Give bare numbers, as −log10 of the molar value.

**Q:** Return value of pIC50 for input Clc1ccc(Nc2nccc3nc(-c4ccccc4)[nH]c23)cc1 , no commentary.
**A:** 5.17

----------
- Test system: Plasmodium berghei
- assay_summary: Luciferase/luciferin-expressing antifolate-resistant parasites were used to infect a culture of HepG2 cells that were pre-incubated with compounds. Infected hepatocytes emit light due to the luciferase reaction. Assay results are presented as the percent inhibition of light emission compared to control. […]
- Type: functional
- experimental_context: sporozoite, FFLUC_HILL_SLOPE 7.36, FFLUC_R_SQUARED 0.327, read-out: LUCIFERASE INFECTION ASSAY - IC50
pIC50: −log10 of the molar value.
measured_metric: pIC50

**Q:** GET pIC50 | system: Plasmodium berghei | item: O=C(COC(=O)/C=C/c1ccc(I)o1)Nc1cc(S(=O)(=O)N2CCCCC2)ccc1Cl
**A:** < 5.00

----------
- Test system: Plasmodium berghei
- assay_summary: Luciferase/luciferin-expressing antifolate-resistant parasites were used to infect a culture of HepG2 cells that were pre-incubated with compounds. Infected hepatocytes emit light due to the luciferase reaction. Assay results are presented as the percent inhibition of light emission compared to control. […]
- Type: functional
- experimental_context: sporozoite, PBLUC_HILL_SLOPE 2.08, PBLUC_R_SQUARED 0.0166, read-out: LUCIFERASE INFECTION ASSAY - IC50
measured_metric: pIC50
Answers are plain numbers, as −log10 of the molar value.

**Q:** Identify measured pIC50 corresponding to CCN(CC)S(=O)(=O)c1cccc(C(=O)N/N=C(\C)c2cc(Cl)ccc2Cl)c1
**A:** 5.11

----------
- System: Plasmodium berghei
- assay_summary: Luciferase/luciferin-expressing antifolate-resistant parasites were used to infect a culture of HepG2 cells that were pre-incubated with compounds. Infected hepatocytes emit light due to the luciferase reaction. Assay results are presented as the percent inhibition of light emission compared to control. […]
- Type: functional
- experimental_context: sporozoite, PBLUC_HILL_SLOPE 7.96, PBLUC_R_SQUARED 0.534, read-out: LUCIFERASE INFECTION ASSAY - IC50
measured_metric: pIC50
Numbers only, as −log10 of the molar value.

**Q:** Tell me measured pIC50 for CC1(C)CC2CC(C)(CN2C(=O)CN2CCN(c3cccc(C(F)(F)F)c3)CC2)C1 (stereo unspecified) please.
**A:** 5.04

----------
- System: Plasmodium berghei
- assay_summary: Luciferase/luciferin-expressing antifolate-resistant parasites were used to infect a culture of HepG2 cells that were pre-incubated with compounds. Infected hepatocytes emit light due to the luciferase reaction. Assay results are presented as the percent inhibition of light emission compared to control. […]
- Assay type: functional
- experimental_context: sporozoite, HEPG2TOX_HILL_SLOPE 9.17, HEPG2TOX_R_SQUARED 0.712, PBLUC_HILL_SLOPE 2.91, PBLUC_R_SQUARED 0.385, read-out: LUCIFERASE INFECTION ASSAY - IC50
measured_metric: pIC50
Give bare numbers, as −log10 of the molar value.

**Q:** Give a short answer stating reported pIC50 for CCCOc1ccc(S(=O)(=O)NC2CCCCC2)c2ccccc12 .
**A:** 5.39

----------
- System: Plasmodium berghei
- assay_summary: Luciferase/luciferin-expressing antifolate-resistant parasites were used to infect a culture of HepG2 cells that were pre-incubated with compounds. Infected hepatocytes emit light due to the luciferase reaction. Assay results are presented as the percent inhibition of light emission compared to control. […]
- Format: functional
- experimental_context: sporozoite, FFLUC_HILL_SLOPE 17.2, FFLUC_R_SQUARED 0.444, read-out: LUCIFERASE INFECTION ASSAY - IC50
measured_metric: IC50

**Q:** Quote IC50 reported for CCn1nc(C)c(Br)c1C(=O)Sc1ccccc1Cl please.
**A:** > 9.17 µM

----------
- Test system: Plasmodium berghei
- assay_summary: Luciferase/luciferin-expressing antifolate-resistant parasites were used to infect a culture of HepG2 cells that were pre-incubated with compounds. Infected hepatocytes emit light due to the luciferase reaction. Assay results are presented as the percent inhibition of light emission compared to control. […]
- Format: functional
- experimental_context: sporozoite, FFLUC_HILL_SLOPE 1.35, FFLUC_R_SQUARED 0.48, HEPG2TOX_HILL_SLOPE 8.97, HEPG2TOX_R_SQUARED 0.707, PBLUC_HILL_SLOPE 6.36, PBLUC_R_SQUARED 0.781, read-out: LUCIFERASE INFECTION ASSAY - IC50
measured_metric: pIC50
Give bare numbers, as −log10 of the molar value.

**Q:** Given Cn1c(Sc2ncc([N+](=O)[O-])s2)n[nH]c1=O , report its pIC50 on Plasmodium berghei.
**A:** 5.29

----------
Record form. Attribute: IC90. Fill in for each entry.
- Tested on: Plasmodium berghei
- assay_summary: Luciferase/luciferin-expressing antifolate-resistant parasites were used to infect a culture of HepG2 cells that were pre-incubated with compounds. Infected hepatocytes emit light due to the luciferase reaction. Assay results are presented as the percent inhibition of light emission compared to control. […]
- Assay type: functional
- experimental_context: sporozoite, read-out: LUCIFERASE INFECTION ASSAY - IC90

>  <molecule_smiles>
O=C1COc2ccc(-c3cs/c(=N\c4ccc(OC(F)F)cc4)n3Cc3ccco3)cc2N1

>  <tgt>
Plasmodium berghei

>  <IC90>
> 10 µM

$$$$

Count: 4. Required value per item: IC90.
1. O=C(Nc1ccc(Oc2ccccc2)cc1)C1=CN2CCN(Cc3ccccc3)C(=O)N=C2O1
2. CN(C)Cc1ccccc1NC(=O)Nc1ccc(Cl)cc1
3. O=C1C=C(Nc2ccccc2)/C(=N\c2ccccc2)c2c1oc1ccc(Nc3ccccc3)cc21
4. CCCn1c(C)cc(/C=C(\C#N)C(=O)OCC(=O)Nc2sc(C)c(-c3ccc(C)cc3)c2C(=O)OCC)c1C

**A:**
1. > 10 µM
2. 7.23 µM
3. > 10 µM
4. > 10 µM
